Target: human PD-1 stably expressed on Jurkat/IL-2 reporter cells (Jurkat/PD-1 cells) (human, UniProt Q15116 25-288)
Sequence (Q15116 25-288): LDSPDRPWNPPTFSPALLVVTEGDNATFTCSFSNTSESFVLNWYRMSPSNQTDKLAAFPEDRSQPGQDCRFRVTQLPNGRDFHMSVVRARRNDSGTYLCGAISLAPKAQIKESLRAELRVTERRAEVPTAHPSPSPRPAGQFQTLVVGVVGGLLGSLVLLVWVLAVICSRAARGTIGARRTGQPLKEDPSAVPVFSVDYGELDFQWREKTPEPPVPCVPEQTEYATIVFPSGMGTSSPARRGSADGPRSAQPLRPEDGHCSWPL
Assay: flow cytometry, Jurkat/PD-1 cells
Hi! Just check whether Fold Increase over WT PD-L1 ECD-Fc is below 3 fold. Below gives Yes, equal or above gives No.

**Q:** Is 3 fold strictly greater than the binder's reported Fold Increase over WT PD-L1 ECD-Fc? binder: variant PD-L1 ECD-Fc N45D, S99G, C137R, V207A (Fc fusion, not shown: a dimerising Fc or GST) FTVTVPKDLYVVEYGSNMTIECKFPVEKQLDLAALIVYWEMEDKDIIQFVHGEEDLKVQHSSYRQRARLLKDQLSLGNAALQITDVKLQDAGVYRCMIGYGGADYKRITVKVNAPYNKINQRILVVDPVTSEHELTRQAEGYPKAEVIWTSSDHQVLSGKTTTTNSKREEKLFNVTSTLRINTTTNEIFYCTFRRLDPEENHTAELAIPELPLAHPPNER
**A:** Yes
